This listing pairs compounds with measured EC50.
# ASSAYED_TARGET: human α7 nicotinic acetylcholine receptor (HEK cell line stably expressing human RIC-3 and human α7) (Homo sapiens)
# Construct: host or cells: HEK cell line (PrecisION hnAChR α7/RIC-3)
# MEASUREMENT_NOTES: Automated patch-clamp electrophysiology functional assay (Assay A), IonFlux HT, whole-cell population patch
# Assay type: cell-based
# CONDITION: automated patch-clamp electrophysiology functional assay (Assay A); read-out: α7 nAChR EC50

| COMPOUND | EC50 (nM) |
| --- | --- |
| NS(=O)(=O)N1CCC2(CC1)[C@H](c1nc(-c3ccc(F)cc3C(F)(F)F)co1)C2(F)F [Example G10] | 28 |
| NS(=O)(=O)N1CCC2(CC1)C[C@H]2c1noc(-c2cccc(-n3nccc3C(F)(F)F)c2)n1 [Example E70] | 2300 |
| NS(=O)(=O)N1CCC2(CC1)C[C@H]2c1noc(-c2ccc(F)cc2OC(F)F)n1 [Example D24] | 240 |
| Cc1ncccc1-c1nc([C@@H]2CC23CCN(S(N)(=O)=O)CC3)no1 [Example E2] | 1100 |
| NS(=O)(=O)N1CCC2(CC1)C[C@H]2c1noc(-c2conc2C(F)(F)F)n1 [Example E29] | 1600 |
| COc1ccc(Cl)cc1-c1noc(C2CC23CCN(S(=O)(=O)Cc2ccccn2)CC3)n1 (racemic) [Example B1] | 2300 |
| Cc1n[nH]c(C2CC2)c1-c1nc([C@@H]2C(F)(F)C23CCN(S(N)(=O)=O)CC3)no1 [Example E41] | 15 |
| NS(=O)(=O)N1CCC2(CC1)[C@H](c1ccn(-c3ccc(F)cc3C(F)(F)F)n1)C2(F)F (stereo in doubt) [Example 36] | 890 |
| NS(=O)(=O)N1CCC2(CC2c2nc(-c3cccc(OC(F)F)c3)no2)C(F)C1 (stereo not shown) [Example 4] | 350 |
| NS(=O)(=O)N1CCC2(CC1)C[C@H]2c1noc(-c2cccc(OC(F)F)c2)n1 [Example D11] | 510 |
| NS(=O)(=O)N1CCC2(CC1)[C@H](c1noc(-c3ccnn3C3CC3)n1)C2(F)F [Example E34] | 130 |
| Cc1ncc(C(F)(F)F)cc1-c1nc([C@@H]2CC23CCN(S(N)(=O)=O)CC3)no1 [Example E61] | 1500 |
| CNc1ncccc1-c1noc(C2CC23CCN(S(N)(=O)=O)CC3)n1 (racemic) [Example C1] | 3600 |
| NS(=O)(=O)N1CCC2(CC1)C(c1nc(-c3ccnc(OC(F)F)c3)no1)C2(F)F (stereo not shown) [Example C9] | 310 |
| Cc1ccc(C)c(-c2nc(C3C(F)(F)C34CCN(S(N)(=O)=O)C(C)C4)no2)c1 (mixture of isomers) [Example K2] | 430 |
| CC1CN(S(N)(=O)=O)CCC12CC2c1nc(-c2ccc(F)cc2C(F)(F)F)no1 (stereo not shown) [Example 6] | 280 |

---

# ASSAYED_TARGET: human α7 nicotinic acetylcholine receptor (HEK cell line stably expressing human RIC-3 and human α7) (Homo sapiens, UniProt P36544)
# Construct: host or cells: HEK cell line (PrecisION hnAChR α7/RIC-3)
# Sequence (P36544 23-502): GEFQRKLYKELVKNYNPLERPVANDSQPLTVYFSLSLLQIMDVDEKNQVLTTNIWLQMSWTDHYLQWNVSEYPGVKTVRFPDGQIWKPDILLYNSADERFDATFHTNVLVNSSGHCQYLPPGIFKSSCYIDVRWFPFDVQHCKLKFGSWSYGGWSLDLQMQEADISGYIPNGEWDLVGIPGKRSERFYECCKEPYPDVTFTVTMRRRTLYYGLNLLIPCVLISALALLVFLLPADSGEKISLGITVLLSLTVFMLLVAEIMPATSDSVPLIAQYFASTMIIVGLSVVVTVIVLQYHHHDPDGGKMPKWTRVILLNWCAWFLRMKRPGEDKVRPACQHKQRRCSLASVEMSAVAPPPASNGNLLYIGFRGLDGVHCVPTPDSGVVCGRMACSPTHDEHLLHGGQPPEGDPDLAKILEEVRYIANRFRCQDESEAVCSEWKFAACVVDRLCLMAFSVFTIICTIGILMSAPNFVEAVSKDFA
# MEASUREMENT_NOTES: Automated patch-clamp electrophysiology functional assay (Assay A), IonFlux HT, whole-cell population patch
# Assay type: cell-based
# CONDITION: automated patch-clamp electrophysiology functional assay (Assay A); read-out: α7 nAChR EC50
pEC50: −log10 of the molar value.

| COMPOUND | pEC50 |
| --- | --- |
| NS(=O)(=O)N1CCC2(CC1)C[C@H]2c1csc(-c2cccc(OC(F)(F)F)c2)n1 | 5.96 |
| NS(=O)(=O)N1CCC2(CC1)C[C@H]2c1noc(-c2ccc(Cl)cc2C(F)(F)F)n1 | 6.23 |
| Cc1ncccc1-c1noc(C2C(F)(F)C23CCN(S(N)(=O)=O)CC3)n1 (stereo not shown) | 5.96 |
| Cc1noc(C)c1-c1noc(C2C(F)(F)C23CCN(S(N)(=O)=O)CC3)n1 (racemic) | 6.40 |
